# tested_target: AgRvs167
# protocol: SPOT peptide array binding signal intensity (averaged, normalized) (arbitrary units (background-subtracted, floor 0; scale differs between SH3 domains)); higher = stronger binding of the SH3 domain to the peptide
Label yes (1) when SPOT peptide array binding signal intensity is at or above 6; anything below gets no (0).

### Prompt // inclusive: SPOT peptide array binding signal intensity at least 6? input: "GQYRRTIVIPRRFFT"
### Response yes (1)

### Prompt // inclusive: SPOT peptide array binding signal intensity at least 6? input: "PVLPPPRSPNRPTLS"
### Response no (0)

### Prompt // inclusive: SPOT peptide array binding signal intensity at least 6? input: "MARRRLPDRPPNGIG"
### Response yes (1)

### Prompt // inclusive: SPOT peptide array binding signal intensity at least 6? input: "VNIPSPSSSPPPIPK"
### Response no (0)

### Prompt // inclusive: SPOT peptide array binding signal intensity at least 6? input: "NNNKMRPHLPPLSSG"
### Response no (0)

### Prompt // inclusive: SPOT peptide array binding signal intensity at least 6? input: "FSRRQSMDIPSKNRN"
### Response no (0)

### Prompt // inclusive: SPOT peptide array binding signal intensity at least 6? input: "PPPPPPPPPPLPQSL"
### Response no (0)

### Prompt // inclusive: SPOT peptide array binding signal intensity at least 6? input: "VGFRLALKFPSRITG"
### Response yes (1)

### Prompt // inclusive: SPOT peptide array binding signal intensity at least 6? input: "NFLRLLIGLPSQNEL"
### Response no (0)

### Prompt // inclusive: SPOT peptide array binding signal intensity at least 6? input: "VPPPMQPPPIESSNL"
### Response no (0)

### Prompt // inclusive: SPOT peptide array binding signal intensity at least 6? input: "EEEEEHPPLPARRKS"
### Response yes (1)

### Prompt // inclusive: SPOT peptide array binding signal intensity at least 6? input: "APERAVPILPPRNNV"
### Response yes (1)

### Prompt // inclusive: SPOT peptide array binding signal intensity at least 6? input: "LKHGWKPLRPIKLIS"
### Response no (0)

### Prompt // inclusive: SPOT peptide array binding signal intensity at least 6? input: "MPAPPPPPPPPPGAF"
### Response no (0)

### Prompt // inclusive: SPOT peptide array binding signal intensity at least 6? input: "IVNKPLPPLPVAGSS"
### Response no (0)
